experiment: PK study in male Sprague-Dawley rats dosed once per day for five days, PO 25 mg/kg, 0.5% HPMC (Example 8); assay type: in vivo; details: male, Sprague-Dawley, rat, in vivo, po, 25 mg/kg, single PO 25 mg/kg dose, 0.5% HPMC suspension, individual animals
MEASUREMENT KIND: AUC(0-t) (µg·h/mL)

MOLECULE	MEASUREMENT KIND	MEASURED
Cc1cc(Nc2cc(N)ncn2)c(=O)n2c1C(=O)NC21CCC2(CC2)CC1 [4ET-03-053]	AUC(0-t)	288

----------
assay: PK study in male Sprague-Dawley rats dosed once per day for five days, PO 10 mg/kg, 0.5% HPMC (Example 7); type: in vivo; settings: male, Sprague-Dawley, rat, in vivo, po, 10 mg/kg, Sprague-Dawley rats, following five daily PO doses of 10 mg/kg, 0.5% HPMC suspension; read-out: peak plasma concentration (Cmax)
MEASUREMENT KIND: Cmax (ng/mL)

COMPOUND	MEASURED
Cc1cc(Nc2cc(N)ncn2)c(=O)n2c1C(=O)NC21CCC2(CC2)CC1 [4ET-03-053]	22800

----------
experiment: PK study in male Sprague-Dawley rats, IV 0.5 mg/kg and PO 1 mg/kg in 10% DMA/PG (Example 5); assay type: in vivo; details: male, Sprague-Dawley, rat, in vivo, iv, 0.5 mg/kg, terminal half-life (t1/2)
MEASUREMENT KIND: half-life (h)

Cc1cc(Nc2cc(N)ncn2)c(=O)n2c1C(=O)NC21CCC2(CC2)CC1 7.33

----------
Assay: PK study in male Sprague-Dawley rats, IV 0.5 mg/kg and PO 1 mg/kg in 10% DMA/PG (Example 5)
Format: in vivo
Conditions: male, Sprague-Dawley, rat, in vivo, po, 1 mg/kg, t1/2
Experimental: Example 5: PK study of 4ET-03-053 in male Sprague-Dawley rats with IV (0.5 mg kg; 10% DMI 15% EtOH 35% PG 40% NS) and PO (1 mg kg; 10% DMA PG) dosing In male Sprague-Dawley rats, following IV administration with 0.5 mg/kg 4ET-03-053, plasma concentrations declined in a multiphasic manner with an initial concentration (Co) of 1.24 ug/mL and a last measurable concentration (Clast) of 33.2 ng/mL at 24 h post dose. […]

COMPOUND	UNITS TEXT	half-life
Cc1cc(Nc2cc(N)ncn2)c(=O)n2c1C(=O)NC21CCC2(CC2)CC1 [4ET-03-053]	h	9.23

----------
test: PK study in male Sprague-Dawley rats dosed once per day for five days, PO 25 mg/kg, 0.5% HPMC (Example 8); type: in vivo; details: male, Sprague-Dawley, rat, in vivo, po, 25 mg/kg, day five of daily PO 25 mg/kg, 0.5% HPMC suspension, mean (n = 3), read-out: Clast
MEASUREMENT KIND: concentration at 24 h (ng/mL)

Cc1cc(Nc2cc(N)ncn2)c(=O)n2c1C(=O)NC21CCC2(CC2)CC1 5890

----------
system: P-gp (human MDR1, ABCB1); assay: MDCK-MDR1 permeability (blood-brain barrier permeability); settings: dog
Listing of recorded efflux ratio at 5 uM by entry.

COMPOUND	TARGET DESC	efflux ratio at 5 uM
Cc1cc(Nc2cc(N)ncn2)c(=O)n2c1C(=O)NC21CCCC2(CC2)CC1 (racemic)	P-gp (human MDR1, ABCB1)	1.2
Cc1cc(Nc2cc(N)ncn2)c(=O)n2c1C(=O)NC21CC2(CCCCC2)C1	P-gp (human MDR1, ABCB1)	1.5
Cc1cc(Nc2cc(N)ncn2)c(=O)n2c1C(=O)NC21CCC2(CCCC2)C1 (stereo not shown)	P-gp (human MDR1, ABCB1)	1
Cc1cc(Nc2cc(NC(=O)C3(CN)CC3)ncn2)c(=O)n2c1C(=O)NC21CCC2(CC2)CC1	P-gp (human MDR1, ABCB1)	19

----------
Experiment: PK study in male Sprague-Dawley rats dosed once per day for five days, PO 1 mg/kg, 0.5% HPMC (Example 6)
Assay type: in vivo
Settings: male, Sprague-Dawley, rat, in vivo, po, 1 mg/kg, Sprague-Dawley rats, after five daily PO doses of 1 mg/kg, 0.5% HPMC suspension; read-out: terminal half-life (t1/2) (converted)
Description: Example 6: PK study of 4ET-03-053 in male Sprague-Dawley rats dosed once per day for five days (P0; 1 mg/kg; 0.500HPMC aqueous suspension) Table 18 provides plasma and brain concentrations of 4ET-03-0053 at 24 hr after the last dose of five daily P0 doses.
MEASUREMENT KIND: half-life

MOLECULE	MEASURED
Cc1cc(Nc2cc(N)ncn2)c(=O)n2c1C(=O)NC21CCC2(CC2)CC1 [4ET-03-053]	6.01 h

----------
test system: P-gp (human MDR1, ABCB1); test: MDCK-MDR1 permeability (blood-brain barrier permeability); conditions: dog
Listing of recorded efflux ratio at 5 uM by entry.
MEASUREMENT KIND: efflux ratio at 5 uM

COMPOUND	MEASUREMENT KIND	MEASURED
Cc1cc(Nc2cc(N)ncn2)c(=O)n2c1C(=O)NC21CCCC2(CC2)C1 (stereo not drawn)	efflux ratio at 5 uM	1.4
Cc1cc(Nc2cc(N)ncn2)c(=O)n2c1C(=O)NC21CC2(CC(F)(F)C2)C1	efflux ratio at 5 uM	1.6
Cc1cc(Nc2cc(N)ncn2)c(=O)n2c1C(=O)NC21CCC2(CCC2)CC1	efflux ratio at 5 uM	1.6
Cc1cc(Nc2cc(NC(=O)C3CC3)ncn2)c(=O)n2c1C(=O)NC21CCC2(CC1)CN2 (stereo not drawn)	efflux ratio at 5 uM	2.4
Cc1cc(Nc2cc(N)ncn2)c(=O)n2c1C(=O)NC21CC2(CCCC2)C1	efflux ratio at 5 uM	1.3
Cc1cc(Nc2cc(N)ncn2)c(=O)n2c1C(=O)NC21C=CC2(CC2)CC1 (stereo not drawn)	efflux ratio at 5 uM	2.3
Cc1cc(Nc2cc(N)ncn2)c(=O)n2c1C(=O)NC21CCC2(CC2)CC1	efflux ratio at 5 uM	1.1
Cc1cc(Nc2cc(NCCO)ncn2)c(=O)n2c1C(=O)NC21CCC2(CC2)CC1	efflux ratio at 5 uM	7.6
Cc1cc(Nc2cc(NC(=O)C3(CN(C)C)CC3)ncn2)c(=O)n2c1C(=O)NC21CCC2(CC2)CC1	efflux ratio at 5 uM	1.4

----------
experiment: PK study in male Sprague-Dawley rats, IV 0.5 mg/kg and PO 1 mg/kg in 10% DMA/PG (Example 5); assay type: in vivo; details: male, Sprague-Dawley, rat, in vivo, po, 1 mg/kg, total systemic exposure (AUCinf)
MEASUREMENT KIND: AUC(0-inf) (ng·h/mL)

Cc1cc(Nc2cc(N)ncn2)c(=O)n2c1C(=O)NC21CCC2(CC2)CC1 6900

----------
experiment: PK study in male Sprague-Dawley rats, IV 0.5 mg/kg and PO 1 mg/kg in 10% DMA/PG (Example 5); assay type: in vivo; conditions: male, Sprague-Dawley, rat, in vivo, po, 1 mg/kg, MRTinf
MEASUREMENT KIND: MRT inf (h)

Cc1cc(Nc2cc(N)ncn2)c(=O)n2c1C(=O)NC21CCC2(CC2)CC1 10.6

----------
assay: PK study in male Sprague-Dawley rats dosed once per day for five days, PO 10 mg/kg, 0.5% HPMC (Example 7); assay type: in vivo; details: male, Sprague-Dawley, rat, in vivo, po, 10 mg/kg, Sprague-Dawley rats, day five of daily PO 10 mg/kg, 0.5% HPMC suspension; individual animals; read-out: t1/2 (converted)
MEASUREMENT KIND: half-life (min)

Cc1cc(Nc2cc(N)ncn2)c(=O)n2c1C(=O)NC21CCC2(CC2)CC1 392

----------
experiment: PK study in CD-1 male mice with IV and PO dosing (Example 3); format: in vivo; conditions: male, CD-1, mouse, in vivo, po, 10 mg/kg, MRTinf
MEASUREMENT KIND: MRT inf (h)

Cc1cc(Nc2cc(N)ncn2)c(=O)n2c1C(=O)NC21CCC2(CC2)CC1 6.7

----------
Test: PK study in CD-1 male mice with IV and PO dosing (Example 3)
Format: in vivo
Details: male, CD-1, mouse, in vivo, iv, 1.5 mg/kg, CLp
Description: Example 3: PK study of 4ET-03-053 in CD-1 male mice with IV and PO dosing In mice, following IV administration with 1.5 mg/kg, plasma concentrations declined in a multiphasic manner with an initial concentration (Co) of 708 ng/mL and a last measurable concentration (Clast) of 5.29 ng/mL at 24 h post dose.
MEASUREMENT KIND: clearance (mL/min/kg)

Cc1cc(Nc2cc(N)ncn2)c(=O)n2c1C(=O)NC21CCC2(CC2)CC1 19.3

----------
molecular target: recombinant full length human kinase MNK2 (Homo sapiens, UniProt Q9HBH9); construct: the recombinant full length human kinase MNK2; made in house; host or cells: insect cells; assay: MNK2 radiometric kinase activity assay; format: biochemical
Sequence (Q9HBH9 whole entry): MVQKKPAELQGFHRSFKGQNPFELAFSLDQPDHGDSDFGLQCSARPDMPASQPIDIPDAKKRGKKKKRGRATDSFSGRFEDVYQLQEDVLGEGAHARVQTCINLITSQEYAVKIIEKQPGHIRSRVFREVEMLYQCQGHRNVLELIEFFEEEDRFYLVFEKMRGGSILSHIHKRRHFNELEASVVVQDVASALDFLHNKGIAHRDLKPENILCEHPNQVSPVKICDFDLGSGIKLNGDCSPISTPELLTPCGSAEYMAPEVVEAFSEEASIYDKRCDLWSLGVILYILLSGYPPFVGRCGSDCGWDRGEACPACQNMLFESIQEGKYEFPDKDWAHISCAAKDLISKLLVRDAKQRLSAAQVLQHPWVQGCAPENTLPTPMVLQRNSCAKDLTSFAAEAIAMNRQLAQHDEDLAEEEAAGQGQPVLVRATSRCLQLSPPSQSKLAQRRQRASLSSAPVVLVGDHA
pIC50: −log10 of the molar value.
MEASUREMENT KIND: pIC50

COMPOUND	TARGET DESC	MEASURED
Cc1cc(Nc2cc(N)ncn2)c(=O)n2c1C(=O)NC21CCC2(CC1)CN2 (centres unmarked) [4ET-01-012]	recombinant full length human kinase MNK2 (Homo sapiens, UniProt Q9HBH9)	8.52
Cc1cc(Nc2cc(NC(=O)C3CC3)ncn2)c(=O)n2c1C(=O)NC21CCC2(CC1)CN2 (centres unmarked) [4ET-03-040]	recombinant full length human kinase MNK2 (Homo sapiens, UniProt Q9HBH9)	8.70
